B1: library; numbered along this chain (parent)
chain: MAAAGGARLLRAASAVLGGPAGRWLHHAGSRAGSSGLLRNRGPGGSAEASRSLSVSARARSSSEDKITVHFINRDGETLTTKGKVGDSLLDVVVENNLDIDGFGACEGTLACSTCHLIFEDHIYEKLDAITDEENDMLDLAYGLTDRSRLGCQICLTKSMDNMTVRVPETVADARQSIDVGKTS

Variants of: B1
Test: scaled log2 fold change in cell abundance, elesclomol vs control (0 = silent mean, 1 = nonsense mean) (scaled log2 ratio); higher = higher viability under elesclomol (loss of FDX1 cuproptosis function);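 also: variant abundance is its share of total variant reads in each endpoint sample, from next-generation sequencing of the integrated ORF PCR-amplified out of genomic DNA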
Conditions: with ABC1 FDX1 KO; elesclomol 5 nM; glucose 10 mM; 14 days
Everything with scaled log2 fold change lower than -0.2 is 0; everything else, including exactly -0.2, is 1.

Query block: Entry R175G : is its scaled log2 fold change no less than -0.2?
Result block: 1

Query block: Entry I72L : is its scaled log2 fold change no less than -0.2?
Result block: 0

Query block: Entry A21M : is its scaled log2 fold change no less than -0.2?
Result block: 0

Query block: Entry R11M : is its scaled log2 fold change no less than -0.2?
Result block: 0

Query block: Entry L90M : is its scaled log2 fold change no less than -0.2?
Result block: 0

Query block: Entry V85P : is its scaled log2 fold change no less than -0.2?
Result block: 1

Query block: Entry K158W : is its scaled log2 fold change no less than -0.2?
Result block: 1

Query block: Entry I67Q : is its scaled log2 fold change no less than -0.2?
Result block: 1

Query block: Entry N135G : is its scaled log2 fold change no less than -0.2?
Result block: 1
